# Assayed System: Human SARS-CoV-2_Wuhan S (SmT1) (SARS-CoV-2 (Wuhan), UniProt P0DTC2 14-1208)
# Protocol: flow cytometry SVNA: VHH-Fc inhibits S binding to ACE2 on Vero E6 cells
Metric: IC50 (nM)
# output: bare number, implied unit nM

What value of measured IC50 is listed for NRCoV2-18 VHH-Fc (Fc fusion, bivalent VHH-Fc) EVQLVESGGGLVQAGGSLRLSCVASGITISGYNMAWWRQTRGKQTERVAFINSGGSTTYSDSVKGRFTISRDNGKNTAYLQMNSLNAEDTADYFCSLHTSHDYWGQGTQVTVSS ?
9.1

How about this binder: NRCoV2-SR13 VHH-Fc (Fc fusion, bivalent VHH-Fc) EVQLVESGGGLVTTGGSLRLSCATSGSRFGSKHMAWYRQAPGKQRDLVAAISSGGSTHYGSSVKGRFTISRDNAKSTVYLQMNSLNPEDTAVFYCNMGGWDYRSNTYIPGSRSDYWGQGTQVTVSS
7.7

How about this binder: NRCoV2-10 VHH-Fc (Fc fusion, bivalent VHH-Fc) QLQLQESGGGLVQPGGSLTLSCAASGNTFSRSNMHWYRQAPGAQREWVAAISSRGISTYAYSAKGRFTISRDNAKNTVSLQMNSLKPEDTAVYYCYAADDLGDYWGQGTQVTVSS
8.8

How about this binder: NRCoV2-17 VHH-Fc (Fc fusion, bivalent VHH-Fc) EVQLQQSGGGLVQTGGSLRLSCAAAGSPFSQLAMSWYRQISGKERAWVASISPTGNRSYSKIAKGRFTISRDNAKNTVTLQMTSLKPEDTAAYICQAANVNGGDYWGQGTQVTVSS
8.6

How about this binder: NRCoV2-15 VHH-Fc (Fc fusion, bivalent VHH-Fc) EVQLVSSGGGLVEAGGSLRLSCIASGSTSGRNTMGWFRQAPGKQREWVAIVSTSGATNYAGSVKGRFTLSRDNAKNAVYLQMNNLKPEDTAVYYCYAAYGGGGDYWGQGTQVTVSS
5.8

How about this binder: NRCoV2-14 VHH-Fc (Fc fusion, bivalent VHH-Fc) EVQLVSSGGGLVQAGGSLRLSCEASGTTFSHYAVGWYRQAPGKQREWVASISVFGSTTYGGSVAGRFTISRDNDKNTVDLQMNSLKPEDTAVYYCHAVNADIGGDYWGQGTQVTVSS
7.5

How about this binder: NRCoV2-12 VHH-Fc (Fc fusion, bivalent VHH-Fc) EVQLQQSGGGLVQAGGSLRLSCAASGRTFRNYVMGWFRQAPQAPGKDHEFVAAISWGGTEIYYADSVKGRFTISRDNAKNTVYLQMNSLKPEDTAVYYCAADRGLSYYYTRTTEYNYWGQGTQVTVSS
3.5

How about this binder: NRCoV2-SR02 VHH-Fc (Fc fusion, bivalent VHH-Fc) EVQLVDSGGGLVQAGGSLRLSCTASEFTLNYYSIGWFRQSPGKEREGVSCIRYSGGGIDYADSVKGRFTISRDNAKNTVYLTMNSLKPEDTAVYYCAADRLYSRACPTAGGRNYWGQGTQVTVSS
1.7
